biological target: murine BACE1 ECD; experiment: cell-based or functional assay; also: test concentration or dose not given here
Sequence (single chain, as listed by the source limits assumed): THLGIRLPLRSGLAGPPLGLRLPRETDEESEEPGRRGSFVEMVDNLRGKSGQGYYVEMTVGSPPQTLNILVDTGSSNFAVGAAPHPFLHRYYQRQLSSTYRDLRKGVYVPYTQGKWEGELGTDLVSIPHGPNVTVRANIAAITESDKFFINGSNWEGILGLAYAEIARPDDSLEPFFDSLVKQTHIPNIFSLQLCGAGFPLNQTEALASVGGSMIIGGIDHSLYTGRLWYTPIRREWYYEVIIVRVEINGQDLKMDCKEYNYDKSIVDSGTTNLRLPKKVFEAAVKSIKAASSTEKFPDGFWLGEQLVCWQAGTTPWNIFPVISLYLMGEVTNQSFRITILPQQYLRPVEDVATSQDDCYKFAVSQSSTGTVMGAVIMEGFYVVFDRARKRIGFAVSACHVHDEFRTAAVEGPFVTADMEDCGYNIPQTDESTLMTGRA
readout.type: % inhibition, FRET short substrate assay (negative = activation) (%)
Write the answer as a number in %, unit excluded.

Examples with answers:
• 5881 (antibody, V domains shown) VH: EVQLLESGGGLVQPGGSLRLSCAASGFTFSKYAMSWVRQAPGKGLEWVSAISGSGISTPYADSVKGRFTISRDNSKNTLYLQMNSLRAEDTAVYYCAKGAGHGSYVKGWFDPWGQGTLVTVSS VL: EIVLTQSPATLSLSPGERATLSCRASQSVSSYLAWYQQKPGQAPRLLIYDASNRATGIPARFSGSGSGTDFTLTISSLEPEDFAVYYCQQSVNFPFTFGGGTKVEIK = 98
• 5260 (antibody, V domains shown) VH: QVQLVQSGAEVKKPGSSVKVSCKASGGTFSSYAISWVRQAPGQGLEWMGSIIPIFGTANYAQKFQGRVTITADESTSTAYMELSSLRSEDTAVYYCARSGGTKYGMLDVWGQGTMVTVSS VL: EIVMTQSPATLSVSPGERATLSCRASQSVGSNLAWYQQKPGQAPRLLIYGASTRATGIPARFSGSGSGTEFTLTISSLQSEDFAVYYCQQAVVWPPRTFGGGTKVEIK = -35

Problem: Returns the measured % inhibition, FRET short substrate assay (negative = activation) for the input binder. Input: 5878 (antibody, V domains shown) VH: EVQLLESGGGLVQPGGSLRLSCAASGFTFSSYAMSWVRQAPGKGLEWVSAISGSGISTPYADSVKGRFTISRDNSKNTLYLQMNSLRAEDTAVYYCAKGAGHGSYVKGWFDPWGQGTLVTVSS VL: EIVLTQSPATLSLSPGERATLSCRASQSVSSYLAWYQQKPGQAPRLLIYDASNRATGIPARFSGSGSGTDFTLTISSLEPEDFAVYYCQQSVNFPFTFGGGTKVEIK
Result: 98
